Assay System: endogenous GABAB receptor in CGNs (Mus musculus, UniProt Q9WV18)
Construct: gene Gabbr1; native receptor, primary cerebellar granule neurons
Sequence (Q9WV18 whole entry): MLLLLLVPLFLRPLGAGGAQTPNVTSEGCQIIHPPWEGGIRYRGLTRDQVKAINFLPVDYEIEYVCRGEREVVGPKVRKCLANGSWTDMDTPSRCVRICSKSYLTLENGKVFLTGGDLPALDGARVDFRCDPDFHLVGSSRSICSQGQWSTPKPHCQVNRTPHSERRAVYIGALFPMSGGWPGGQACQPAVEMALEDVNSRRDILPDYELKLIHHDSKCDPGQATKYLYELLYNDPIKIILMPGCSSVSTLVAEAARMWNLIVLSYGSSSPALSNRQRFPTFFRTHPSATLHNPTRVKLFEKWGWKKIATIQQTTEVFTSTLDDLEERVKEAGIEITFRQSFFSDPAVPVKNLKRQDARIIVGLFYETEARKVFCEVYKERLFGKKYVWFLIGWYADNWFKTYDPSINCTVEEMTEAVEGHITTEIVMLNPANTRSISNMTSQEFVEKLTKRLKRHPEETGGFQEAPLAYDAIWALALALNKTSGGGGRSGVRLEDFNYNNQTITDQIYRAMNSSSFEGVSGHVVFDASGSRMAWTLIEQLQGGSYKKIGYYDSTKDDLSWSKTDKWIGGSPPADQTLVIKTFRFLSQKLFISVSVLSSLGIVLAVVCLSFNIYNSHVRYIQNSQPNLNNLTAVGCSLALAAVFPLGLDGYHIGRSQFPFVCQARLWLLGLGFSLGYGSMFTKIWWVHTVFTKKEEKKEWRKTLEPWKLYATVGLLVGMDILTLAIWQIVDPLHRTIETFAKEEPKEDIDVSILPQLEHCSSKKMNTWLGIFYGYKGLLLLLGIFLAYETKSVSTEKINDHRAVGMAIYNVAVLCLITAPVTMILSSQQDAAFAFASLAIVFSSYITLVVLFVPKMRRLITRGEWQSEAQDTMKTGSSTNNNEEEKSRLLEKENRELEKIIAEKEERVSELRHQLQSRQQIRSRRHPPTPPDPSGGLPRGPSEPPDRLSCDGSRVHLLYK
Sequence (Q80T41 whole entry partner): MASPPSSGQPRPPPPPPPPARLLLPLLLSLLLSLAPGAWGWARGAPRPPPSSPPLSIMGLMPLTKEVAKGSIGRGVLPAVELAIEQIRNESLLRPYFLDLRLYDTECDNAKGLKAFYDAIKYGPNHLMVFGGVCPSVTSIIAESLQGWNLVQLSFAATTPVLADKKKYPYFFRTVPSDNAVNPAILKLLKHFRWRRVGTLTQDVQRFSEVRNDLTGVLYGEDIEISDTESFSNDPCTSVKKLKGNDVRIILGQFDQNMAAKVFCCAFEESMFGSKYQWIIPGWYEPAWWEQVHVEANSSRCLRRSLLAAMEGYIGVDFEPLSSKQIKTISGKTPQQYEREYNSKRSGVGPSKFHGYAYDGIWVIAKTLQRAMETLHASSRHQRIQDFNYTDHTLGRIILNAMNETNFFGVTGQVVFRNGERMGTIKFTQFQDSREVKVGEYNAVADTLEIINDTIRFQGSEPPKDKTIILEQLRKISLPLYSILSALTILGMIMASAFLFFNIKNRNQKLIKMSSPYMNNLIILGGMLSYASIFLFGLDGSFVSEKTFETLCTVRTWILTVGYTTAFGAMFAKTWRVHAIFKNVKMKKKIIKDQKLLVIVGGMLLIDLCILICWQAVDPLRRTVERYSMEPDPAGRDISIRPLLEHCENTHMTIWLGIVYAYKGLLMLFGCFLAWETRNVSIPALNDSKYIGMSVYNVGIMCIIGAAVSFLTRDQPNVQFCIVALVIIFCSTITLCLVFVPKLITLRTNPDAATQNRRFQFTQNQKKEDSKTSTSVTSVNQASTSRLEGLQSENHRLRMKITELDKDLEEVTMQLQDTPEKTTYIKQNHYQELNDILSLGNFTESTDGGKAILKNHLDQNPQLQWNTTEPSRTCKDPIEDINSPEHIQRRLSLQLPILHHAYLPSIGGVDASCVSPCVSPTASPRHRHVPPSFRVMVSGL
Test Summary: cell-based
Set-up: species or system primary cerebellar granule neurons (CGNs)
Condition Notes: Gi1 sensor; with 20 uM baclofen
Parameter: IC50
Just the number plus its unit, please.

In plain terms, C[C@@H](NC[C@H](O)CP(=O)(O)CCCCCNC(=O)CCc1ccc(O)c(I)c1)c1cccc(C(=O)O)c1 has a documented IC50 of 0.0282 µM

---

Assay System: GABAB receptor (GB1 subunit) (Rattus norvegicus)
Construct: gene Gabbr1; HA-tagged rat GB1 with Flag-tagged rat GB2 expressed in HEK293 cells; with GABAB2 (GB2)
Sequence (Q9Z0U4 20-960): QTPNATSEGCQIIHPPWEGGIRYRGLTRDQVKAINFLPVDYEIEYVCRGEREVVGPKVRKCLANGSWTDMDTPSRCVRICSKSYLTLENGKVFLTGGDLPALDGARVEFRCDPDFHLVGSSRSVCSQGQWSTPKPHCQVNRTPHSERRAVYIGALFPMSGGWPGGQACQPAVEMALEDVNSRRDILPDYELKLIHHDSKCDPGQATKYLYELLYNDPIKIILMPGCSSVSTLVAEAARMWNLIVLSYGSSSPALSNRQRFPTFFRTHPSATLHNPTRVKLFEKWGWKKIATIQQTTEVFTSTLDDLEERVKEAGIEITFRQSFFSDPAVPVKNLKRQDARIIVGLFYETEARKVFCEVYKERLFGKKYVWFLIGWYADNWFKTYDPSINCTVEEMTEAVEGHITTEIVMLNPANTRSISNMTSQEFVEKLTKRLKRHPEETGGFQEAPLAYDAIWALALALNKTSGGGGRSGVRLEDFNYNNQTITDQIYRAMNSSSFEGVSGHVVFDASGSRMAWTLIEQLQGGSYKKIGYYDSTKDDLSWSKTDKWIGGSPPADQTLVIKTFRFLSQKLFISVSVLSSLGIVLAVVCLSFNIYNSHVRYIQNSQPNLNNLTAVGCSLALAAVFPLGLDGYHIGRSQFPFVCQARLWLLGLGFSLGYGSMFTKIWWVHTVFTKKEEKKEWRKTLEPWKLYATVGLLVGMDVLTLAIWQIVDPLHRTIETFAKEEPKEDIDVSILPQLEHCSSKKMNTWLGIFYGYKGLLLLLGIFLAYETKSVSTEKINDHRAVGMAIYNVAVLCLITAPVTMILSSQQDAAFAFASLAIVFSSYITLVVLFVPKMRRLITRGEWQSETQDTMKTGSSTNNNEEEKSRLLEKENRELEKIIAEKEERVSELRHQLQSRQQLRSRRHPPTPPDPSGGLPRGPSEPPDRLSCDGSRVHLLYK
Sequence (O88871 41-940 partner): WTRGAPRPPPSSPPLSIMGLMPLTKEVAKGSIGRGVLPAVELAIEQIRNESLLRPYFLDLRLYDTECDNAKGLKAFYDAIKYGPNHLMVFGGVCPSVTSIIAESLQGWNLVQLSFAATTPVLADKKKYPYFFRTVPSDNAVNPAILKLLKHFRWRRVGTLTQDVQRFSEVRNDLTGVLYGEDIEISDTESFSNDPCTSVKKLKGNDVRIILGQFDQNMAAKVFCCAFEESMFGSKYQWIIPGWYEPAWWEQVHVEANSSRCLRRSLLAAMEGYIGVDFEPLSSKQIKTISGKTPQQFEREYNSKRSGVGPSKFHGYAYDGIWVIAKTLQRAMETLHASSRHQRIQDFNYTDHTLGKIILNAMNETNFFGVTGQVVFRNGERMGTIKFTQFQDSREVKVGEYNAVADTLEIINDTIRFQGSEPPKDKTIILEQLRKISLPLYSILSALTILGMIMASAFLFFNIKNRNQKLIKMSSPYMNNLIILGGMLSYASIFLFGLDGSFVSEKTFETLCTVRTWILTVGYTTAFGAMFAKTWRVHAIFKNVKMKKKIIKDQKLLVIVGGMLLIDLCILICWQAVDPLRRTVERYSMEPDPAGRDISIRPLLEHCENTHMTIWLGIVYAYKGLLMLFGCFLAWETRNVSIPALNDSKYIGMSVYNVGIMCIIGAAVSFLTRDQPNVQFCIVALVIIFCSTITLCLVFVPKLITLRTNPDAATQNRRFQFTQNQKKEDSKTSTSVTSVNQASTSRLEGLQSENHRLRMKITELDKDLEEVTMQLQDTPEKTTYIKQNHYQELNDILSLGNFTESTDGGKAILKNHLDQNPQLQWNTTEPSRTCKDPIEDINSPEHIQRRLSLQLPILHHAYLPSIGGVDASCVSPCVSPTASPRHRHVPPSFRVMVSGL
Test Summary: cell-based
Set-up: species or system HEK293; BRET G protein sensor (Galpha-Nluc / Venus-Ggamma2), agonist-induced change of BRET
Condition Notes: pEC50 HEK293, GoA sensor
Parameter: EC50 (nM)
Field: numeric (nM). Do not append units.

Reported EC50 for NCCC[PH](=O)O was 17
